Molecular target: UniProtKB P13569
Assay: Corrector Assay A - membrane potential dye assay (enteroid cells)
Conditions: % of chloride transport of triple combination control (1 μM (14S)-dispiro macrocycle + 3 μM tezacaftor + 300 nM ivacaftor)
reported.property: Corrector Assay A % activity

CC(C)COc1cc(F)cc(-c2ccc3c(n2)N2C[C@@H](CCC(c4ccccn4)Nc4cccc(n4)S(=O)(=O)NC3=O)CC2(C)C)c1 (single isomer, unassigned) [Compound 352]
++ (++ is 30-60%)
CC(C)(C)COc1ccn(-c2ccc3c(n2)N2C[C@@H](CC[C@H](c4ccccn4)Nc4cccc(n4)S(=O)(=O)NC3=O)CC2(C)C)n1
++ (++ is 30-60%)
CC(C)(C)c1ccc([C@@H]2CC[C@@H]3CN(c4nc(C(C)(C)C)ccc4C(=O)NS(=O)(=O)c4cccc(n4)N2)C(C)(C)C3)cc1 (single isomer, unassigned) [Compound 37]
++ (++ is 30-60%)

###

Biological target: CFTR-mediated chloride transport (Homo sapiens, UniProt P13569)
Experiment: Corrector Assay A - membrane potential dye assay (enteroid cells)
Settings: % of chloride transport of triple combination control (1 μM (14S)-dispiro macrocycle + 3 μM tezacaftor + 300 nM ivacaftor)
reported.property: Corrector Assay A % activity

Reference set (4 entries):
CC1(C)C[C@@H]2CCC(c3ccccc3)Nc3cccc(n3)S(=O)(=O)NC(=O)c3ccc(-n4ccc(OCCC5C6(CC6)C56CC6)n4)nc3N1C2 (single isomer, unassigned) [Compound 364]
+++ (+++ is >60%)
CC(C)(C)CCOc1ccn(-c2ccc3c(n2)N2C[C@@H](CC[C@H](c4cc(C(C)(C)C)ccn4)Nc4cccc(n4)S(=O)(=O)NC3=O)CC2(C)C)n1
+++ (+++ is >60%)
CC(C)(C)c1cccc(C2CC[C@@H]3CN(c4nc(C(C)(C)C)ccc4C(=O)NS(=O)(=O)c4cccc(n4)N2)C(C)(C)C3)c1 (single isomer, unassigned) [Compound 40]
++ (++ is 30-60%)
CC(C)(C)c1ccc2c(n1)N1C[C@@H](CCC(c3cc(C4CCNCC4)ccn3)Nc3cccc(n3)S(=O)(=O)NC2=O)CC1(C)C (some centres unmarked) [Compound 124]
++ (++ is 30-60%)

We next turn to a different compound, shown below.
(Q) Quick one: Corrector Assay A % activity of CC1(C)C[C@@H]2CCC(c3ccccc3)Nc3cccc(n3)S(=O)(=O)NC(=O)c3ccc(-n4ccc(OCCC5C6(CC6)C56CC6)n4)nc3N1C2 (single isomer, unassigned) [Compound 363] ?
(A) +++ (+++ is >60%)

###

Biological target: CFTR-mediated chloride transport (Homo sapiens, UniProt P13569)
Experiment: Corrector Assay A - membrane potential dye assay (enteroid cells)
Conditions: % of chloride transport of triple combination control (1 μM (14S)-dispiro macrocycle + 3 μM tezacaftor + 300 nM ivacaftor)
reported.property: Corrector Assay A % activity

CC(C)(C)c1ccc2c(n1)N1C[C@@H](CCCNc3cccc(n3)S(=O)(=O)NC2=O)CC1(C)C [Compound 296]
+++ (+++ is >60%)
CC(C)(C)c1ccc2c(n1)N1C[C@@H](CCC(c3ccc(N4CCCC4)cn3)Nc3cccc(n3)S(=O)(=O)NC2=O)CC1(C)C (stereo partly drawn) [Compound 163]
++ (++ is 30-60%)
Cn1nccc1-c1ccc(C2CC[C@@H]3CN(c4nc(C(C)(C)C)ccc4C(=O)NS(=O)(=O)c4cccc(n4)N2)C(C)(C)C3)nc1 (stereo partly drawn) [Compound 57]
++ (++ is 30-60%)
CN(C)CC(=O)N1CCC(C2CC[C@@H]3CN(c4nc(C(C)(C)C)ccc4C(=O)NS(=O)(=O)c4cccc(n4)N2)C(C)(C)C3)CC1 (stereo partly drawn) [Compound 236]
++ (++ is 30-60%)

(Q) Request: Corrector Assay A % activity, test system CFTR-mediated chloride transport (Homo sapiens, UniProt P13569), entry CC(C)(C)c1ccc2c(n1)N1C[C@@H](CCC(c3ccc(CO)cn3)Nc3cccc(n3)S(=O)(=O)NC2=O)CC1(C)C (stereo partly drawn) [Compound 79]
(A) +++ (+++ is >60%)

(Q) Request: Corrector Assay A % activity, test system CFTR-mediated chloride transport (Homo sapiens, UniProt P13569), entry CC(C)(C)c1ccc2c(n1)N1C[C@@H](CCC(c3ccc(-c4cn[nH]c4)cn3)Nc3cccc(n3)S(=O)(=O)NC2=O)CC1(C)C (stereo partly drawn) [Compound 136]
(A) +++ (+++ is >60%)
